Assay Context: in THF, 283.15 K
Experimental Readout: solubility (mole fraction)
Simply state the number, no unit and no words.

Given the entry `O=c1[nH]cc(F)c(=O)[nH]1` , report its measured solubility (mole fraction).
0.000217

* * *

Assay Context: in DMAc, 318.15 K
Experimental Readout: solubility (mole fraction)
Simply state the number, no unit and no words.

Given the entry CCC1=C(C)CN(C(=O)NCCc2ccc(S(=O)(=O)NC(=O)NC3CCC(C)CC3)cc2)C1=O (stereo unspecified) , report its measured solubility (mole fraction).
0.0343

* * *

Reported solubility (mole fraction) values for the following molecules.
Assay Context: in ethanol, 293.15 K
Simply state the number, no unit and no words.

INSERT INTO measurements (smi, reported) VALUES
  ('CC1(C)S[C@@H]2[C@H](NC(=O)COc3ccccc3)C(=O)N2[C@H]1C(=O)[O-].[K+]', 0.000866);

Shift focus to the following entry.
Given the entry `Clc1ccc(OCCCBr)cc1` , report its measured solubility (mole fraction).
0.0658

* * *

Reported solubility (mole fraction) values for the following compounds.
Assay Context: in 2,2,4-trimethylpentane, 298.15 K
Simply state the number, no unit and no words.

INSERT INTO measurements (smi, reported) VALUES
  ('c1ccc2cc3ccccc3cc2c1', 0.00107);

Shift focus to the following entry.
Given the entry `O=C(C(=O)c1ccccc1)c1ccccc1` , report its measured solubility (mole fraction).
0.00589

* * *

Assay Context: in water, 295.45 K
Experimental Readout: solubility (mole fraction)

Given the entry `CCCCC` , report its measured solubility (mole fraction).
1.03e-05

* * *

Reported solubility (mole fraction) values for the following compounds.
Assay Context: in isopropanol, 298.15 K
Simply state the number, no unit and no words.

INSERT INTO results (smi, experimental_readout, reported) VALUES
  ('O=C(C(=O)c1ccccc1)c1ccccc1', 'solubility (mole fraction)', 0.00831),
  ('c1ccc2cc3ccccc3cc2c1', 'solubility (mole fraction)', 0.000411);

Shift focus to the following entry.
Given the entry `CC(C)(C)C(=O)OCOP(=O)(COCCn1cnc2c(N)ncnc21)OCOC(=O)C(C)(C)C` , report its measured solubility (mole fraction).
0.0252

* * *

Assay Context: in 1,4-dioxane, 313.2 K
Experimental Readout: solubility (mole fraction)

Given the entry CC(=O)N1CCN(c2ccc(OC[C@@H]3CO[C@@](Cn4ccnc4)(c4ccc(Cl)cc4Cl)O3)cc2)CC1 (racemic) , report its measured solubility (mole fraction).
0.0139

* * *

Assay Context: in ethanol, 310.65 K
Experimental Readout: solubility (mole fraction)
Simply state the number, no unit and no words.

Given the entry `Nc1cc(Cl)nnc1Cl` , report its measured solubility (mole fraction).
0.0192

* * *

Assay Context: in 1-hexene, 293.15 K
Experimental Readout: solubility (mole fraction)
Simply state the number, no unit and no words.

Given the entry `CC1=C(/C=C/C(C)=C/C=C/C(C)=C/C=C/C=C(C)/C=C/C=C(C)/C=C/C2=C(C)CCCC2(C)C)C(C)(C)CCC1` , report its measured solubility (mole fraction).
0.000187

* * *

Assay Context: in n-propyl acetate, 313.2 K
Experimental Readout: solubility (mole fraction)
Simply state the number, no unit and no words.

Given the entry `O=C(O)c1cccc(C(=O)O)c1` , report its measured solubility (mole fraction).
0.000934

* * *

Assay Context: in MTBE, 298.15 K
Experimental Readout: solubility (mole fraction)
Simply state the number, no unit and no words.

Given the entry `c1ccc2cc3ccccc3cc2c1` , report its measured solubility (mole fraction).
0.00305

* * *

Assay Context: in methanol, 308.18 K
Experimental Readout: solubility (mole fraction)
Simply state the number, no unit and no words.

Given the entry `CO[C@H]1O[C@H](CO)[C@@H](O)[C@H](O)[C@H]1O` , report its measured solubility (mole fraction).
0.015

* * *

Assay Context: in ethanol, 320.65 K
Experimental Readout: solubility (mole fraction)
Simply state the number, no unit and no words.

Given the entry `Nc1cc(Cl)nnc1Cl` , report its measured solubility (mole fraction).
0.023

* * *

Assay Context: in ethylene glycol, 303.15 K
Experimental Readout: solubility (mole fraction)
Simply state the number, no unit and no words.

Given the entry `COc1cc(/C=C/C(=O)O)cc(OC)c1O` , report its measured solubility (mole fraction).
0.0066

* * *

Assay Context: in methanol, 303.2 K
Experimental Readout: solubility (mole fraction)
Simply state the number, no unit and no words.

Given the entry `NC(CO)(CO)CO` , report its measured solubility (mole fraction).
0.0106

* * *

Assay Context: in THF, 293.15 K
Experimental Readout: solubility (mole fraction)
Simply state the number, no unit and no words.

Given the entry `O=c1[nH]cc(F)c(=O)[nH]1` , report its measured solubility (mole fraction).
0.000359

* * *

Assay Context: in toluene, 293.15 K
Experimental Readout: solubility (mole fraction)
Simply state the number, no unit and no words.

Given the entry `CC1=C(/C=C/C(C)=C/C=C/C(C)=C/C=C/C=C(C)/C=C/C=C(C)/C=C/C2=C(C)CCCC2(C)C)C(C)(C)CCC1` , report its measured solubility (mole fraction).
0.00109

* * *

Assay Context: in water, 310.15 K
Experimental Readout: solubility (mole fraction)
Simply state the number, no unit and no words.

Given the entry `CC(=O)Nc1ccc(O)cc1` , report its measured solubility (mole fraction).
0.00272

* * *

Assay Context: in ethylene glycol, 313.15 K
Experimental Readout: solubility (mole fraction)

Given the entry `COc1cc(/C=C/C(=O)O)cc(OC)c1O` , report its measured solubility (mole fraction).
0.00848

* * *

Assay Context: in acetic acid, 293.2 K
Experimental Readout: solubility (mole fraction)
Simply state the number, no unit and no words.

Given the entry `O=C1c2ccccc2C(=O)N1O` , report its measured solubility (mole fraction).
0.00298

* * *

Assay Context: in isopentanol, 298.15 K
Experimental Readout: solubility (mole fraction)
Simply state the number, no unit and no words.

INSERT INTO measurements (smi, reported) VALUES
  ('c1ccc2cc3ccccc3cc2c1', 0.000727);

Given the entry `O=C(C(=O)c1ccccc1)c1ccccc1` , report its measured solubility (mole fraction).
0.0128

* * *

Assay Context: in dichloromethane, 303.15 K
Experimental Readout: solubility (mole fraction)
Simply state the number, no unit and no words.

Given the entry `O=P(Oc1ccccc1)(Oc1ccccc1)N1CCN(P(=O)(Oc2ccccc2)Oc2ccccc2)CC1` , report its measured solubility (mole fraction).
0.0103

* * *

Assay Context: in n-propanol, 298.15 K
Reported solubility (mole fraction) values for the following molecules.
Simply state the number, no unit and no words.

Solved cases below.
INSERT INTO measurements (smi, reported) VALUES
  ('c1ccc2cc3ccccc3cc2c1', 0.000591),
  ('COc1ccc([C@@H]2CC(=O)c3c(O)cc(O[C@@H]4O[C@H](CO[C@@H]5O[C@@H](C)[C@H](O)[C@@H](O)[C@H]5O)[C@@H](O)[C@H](O)[C@H]4O)cc3O2)cc1O', 0.000166),
  ('C/C=C/C=C/C(=O)O', 0.0519),
  ('O=C(C(=O)c1ccccc1)c1ccccc1', 0.0118);

Given the entry `Nc1ccc(S(=O)(=O)Nc2ncccn2)cc1` , report its measured solubility (mole fraction).
4.71e-05

* * *

Assay Context: in THF, 308.15 K
Experimental Readout: solubility (mole fraction)
Simply state the number, no unit and no words.

Given the entry `O=c1[nH]cc(F)c(=O)[nH]1` , report its measured solubility (mole fraction).
0.000763

* * *

Assay Context: in water, 317.15 K
Experimental Readout: solubility (mole fraction)
Simply state the number, no unit and no words.

Given the entry `O=C(O)CNCP(=O)(O)O` , report its measured solubility (mole fraction).
0.00202

* * *

Reported solubility (mole fraction) values for the following molecules.
Assay Context: in methanol, 323.15 K
Simply state the number, no unit and no words.

Solved cases below.
INSERT INTO results (molecule, reported) VALUES
  ('NCCC(=O)O', 0.183),
  ('CN1COCN(Cc2cnc(Cl)s2)C1=N[N+](=O)[O-]', 0.0063);

Given the entry `O=c1c(-c2ccc(O)cc2)coc2c([C@@H]3O[C@H](CO)[C@@H](O)[C@H](O)[C@H]3O)c(O)ccc12` , report its measured solubility (mole fraction).
0.00932

Also, CCc1ccc(CCOc2ccc(CC3SC(=O)NC3=O)cc2)nc1.Cl (centres undefined) please.
0.0223

* * *

Assay Context: in isopropanol, 293.2 K
Experimental Readout: solubility (mole fraction)
Simply state the number, no unit and no words.

Given the entry CC(=O)N1CCN(c2ccc(OC[C@@H]3CO[C@@](Cn4ccnc4)(c4ccc(Cl)cc4Cl)O3)cc2)CC1 (racemic) , report its measured solubility (mole fraction).
0.000773

* * *

Assay Context: in n-propanol, 318.15 K
Reported solubility (mole fraction) values for the following molecules.
Simply state the number, no unit and no words.

INSERT INTO assay_data (smi, reported) VALUES
  ('C/C=C/C=C/C(=O)O', 0.129);

Shift focus to the following entry.
Given the entry `COc1ccc([C@@H]2CC(=O)c3c(O)cc(O[C@@H]4O[C@H](CO[C@@H]5O[C@@H](C)[C@H](O)[C@@H](O)[C@H]5O)[C@@H](O)[C@H](O)[C@H]4O)cc3O2)cc1O` , report its measured solubility (mole fraction).
0.000289
